I'd be grateful if you could share measured pIC50 for these entries.
Assay: Antiproliferative activity against mink Mv1Lu-p3TP-Lux cells by luciferase reporter assay
Type: functional, cell-based, Neovison vison
Details: Neogale vison
pIC50: −log10 of the molar value.

Worked examples follow.
• Clc1cc(-c2c(-c3ccccn3)nn3c2CCC3)c2ccccc2n1 = < 4.70
• O=C(O)c1ccc(Oc2ccc3c(-c4c(-c5ccccn5)nn5c4CCC5)ccnc3c2)cc1 = < 4.70

Could you now consider this next compound?
pIC50 lookup needed for CCSc1cc(-c2c(-c3ccccn3)nn3c2CCC3)c2ccccc2n1 , thanks.
< 4.70

* * *

Biological target: TGF-beta receptor type-1 (Homo sapiens, UniProt P36897, T204D)
Assay: Inhibition of TGFbeta type receptor 1 ALK5 (T204D) expressed in Sf9 cells
Measurement Type: IC50 (nM)
Answers are plain numbers, in nM.

Worked examples follow.
• c1ccc(-c2nn3c(c2-c2ccnc4cc(OCC5CCCO5)ccc24)CCC3)nc1 (stereo not drawn) = 130
• Cc1cccc(-c2nn3c(c2-c2ccnc4ccc(OC(F)(F)F)cc24)CCC3)n1 = 141
• Oc1ccc2c(-c3c(-c4ccccn4)nn4c3CCC4)ccnc2c1 = 160
• CN1CCN(CCOc2ccc3c(-c4c(-c5ccccn5)nn5c4CCC5)ccnc3c2)CC1 = 100
• CN1CCCC1CCCOc1ccc2c(-c3c(-c4ccccn4)nn4c3CCC4)ccnc2c1 (stereo not drawn) = 72
• Cc1cccc(-c2nn3c(c2-c2ccnc4ccc(Br)cc24)CCC3)n1 = 89

Field: IC50. Fill in for each record below.
1. CCN(C)CCOc1ccc2c(-c3c(-c4ccccn4)nn4c3CCC4)ccnc2c1
2. CN1CCN(CCCOc2ccc3c(-c4c(-c5ccccn5)nn5c4CCC5)ccnc3c2)CC1

[85, 74]

Origin of measurements: ChEMBL document CHEMBL1144852
